Origin of values: patent US7056679

Catalogue of DGI-2/LDH readings, one per entry.
# Tested On: T1, DGI-2 polypeptide (UniProt Q15004 1-111, limits assumed)
# T1 construct: Soluble recombinant protein coated at 500 ng/well; vector tag of pIVEX2.3-MCS not described for this construct; also called KIAA0101
# T1 sequence (looked up): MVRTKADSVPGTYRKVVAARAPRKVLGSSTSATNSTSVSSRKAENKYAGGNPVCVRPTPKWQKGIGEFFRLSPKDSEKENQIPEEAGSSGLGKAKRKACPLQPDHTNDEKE
# Assay Info: phage ELISA
# Method: For analysis of individual target binders, colonies were picked and phage prepared as described above using helper phage, M13KO7. Ninety-six-well microtiter plates were coated with 500 ng/well of specific target protein, 500 ng/well lactate dehydrogenase (LDH) irrelevant or non-specific target, 500 ng/well of positive control antibody raised against ETAG, and negative control of non-fat milk powder-PBS 2% at 4° C. overnight. […] Plates were analyzed at 405 nm. […]
Metric Name: DGI-2/LDH (ratio)

>  <Binder>
DQRVVGSGWFERLRNWYDRAAAAGAPVPYPDPLEPRP [DGI-2-20R-4-G99]

>  <Value Observed>
7.2

$$$$
>  <Binder>
DRSRAPLCADKSGRWQRYRRAAAGAPVPYPDPLEPRP [DGI-2-20F-PP-C10]

>  <Value Observed>
3.1

$$$$
>  <Binder>
RISVGQCGTSRCGGGRRGGGAAAGAPVPYPDPLEPRP [DGI-2-20F-PP-D1]

>  <Value Observed>
1.9

$$$$
>  <Binder>
GWSDFVATGSWSGQVSAALNAAAGAPVPYPDPLEPRP [DGI-2-20R-4-F120]

>  <Value Observed>
12.2

$$$$
>  <Binder>
QMSRVAFSPGESWRRWVEGVAAAGAPVPYPDPLEPRP [DGI-2-20R-3-A2]

>  <Value Observed>
7.5

$$$$
>  <Binder>
SRPGWCSRGTAWGFPGCSSSAAAGAPVPYPDPLEPRP [DGI-2-20R-3-C4]

>  <Value Observed>
4.2

$$$$
